- Procedure Details: Stability of peptides in HepG2 whole cell lysate
- Type: in vitro ADME
- Condition: human, HepG2 lysate, 10 hours, read-out: % intact peptide
- Method: Stability of Peptides in HepG2 Whole Cell Lysate Using the same conditions as the previous Cts L Activity Assay in HepG2 Whole Cell Lysate, 50 μL peptide (either R1A or RS1A; final concentration 20 μM) was incubated in 50 μL HepG2 whole cell lysate (to a final concentration of 0.05 mg/mL) in the assay buffer for different time points. The all-amide peptide, R 1A, was incubated for t = 0, 5, 10, 15, 20, and 30 minutes. The thioamide peptide, RS1A, was incubated for t = 0, 2, 6, 8, 10, and 24 hours. […]
Starred links: 1 amine or outer side, 2 acyl side, 3 side chain; linkers in the order of their positions; H or OH if unused. Non-standard residues stand in square brackets, D forms with d. Residues, ends and D or L forms follow the SMILES beside them. Ala(7-MeO-coumarin-4-yl) = COc1ccc2c(C[C@H](N)C(=O)O)cc(=O)oc2c1; X1 = C[C@H](NC(=S)[C@H](CCCNC(=N)N)N[*:1])C(=O)[*:2]
Endpoint Label: remaining at 10 h, 20 μM (%)

[[record]]
compound = "COc1ccc2c(C[C@H](NC(=O)[C@H](C)NC(=S)[C@H](CCCNC(=N)N)NC(=O)[C@H](Cc3ccccc3)NC(=O)[C@H](CC(C)C)NC(=O)[C@H](Cc3c[nH]cn3)NC(=O)[C@@H](N)Cc3cc(=O)oc4cc(OC)ccc34)C(=O)O)cc(=O)oc2c1 [R^S1A, μHLFR^SAμ] (H-[Ala(7-MeO-coumarin-4-yl)]HLF[X1][Ala(7-MeO-coumarin-4-yl)]-OH)"
endpoint_label = "remaining at 10 h, 20 μM"
reading = 79.9

